- Assay system: T1, human CD8 alpha (CD8A) on primary human CD8+ T cells (human, UniProt P01732 22-235)
- T1 construct: whole, on cells; also called hCD8A
- T1 sequence (P01732 22-235): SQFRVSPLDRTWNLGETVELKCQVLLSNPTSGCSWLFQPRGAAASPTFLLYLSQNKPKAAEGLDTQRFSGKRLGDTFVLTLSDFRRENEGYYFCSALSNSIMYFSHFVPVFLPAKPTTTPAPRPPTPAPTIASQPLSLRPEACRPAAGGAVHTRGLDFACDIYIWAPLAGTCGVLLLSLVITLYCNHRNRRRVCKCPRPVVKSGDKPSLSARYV
- Protocol details: flow cytometry, human CD8+ T cells
Readout label: Human T-cell Binding 2 uM (MFI)

Observe how each entry below is paired with its result.
>>> recorded_value("P283DR9P1364_E9 (designed binder, FN3 domain) LPAPKNLVVSRVTEDSARLSWTAPDAAFDSFDIAYPEWPTKGEAIVLTVPGSERSYDLTGLKPGTEYFVVINGVKGGWRSFPLSAIFTT")
4300
>>> recorded_value("P283FR9P1366_H7 (designed binder, FN3 domain) LPAPKNLVVSRVTEDSARLSWTAPDAAFDSFQIAYPEYPALGEAIVLTVPGSERSYDLTGLKPGTEYFVIIAGVKGGIQSWPLSAIFTT")
13800
>>> recorded_value("P283FR9P1366_H5 (designed binder, FN3 domain) LPAPKNLVVSRVTEDSARLSWTAPDAAFDSFIYIENKVNGEAIVLTVPGSERSYDLTGLKPGTEYHVTIGGVKGGTESNTLSAIFTT")
3140
>>> recorded_value("P283FR9P1366_H8 (designed binder, FN3 domain) LPAPKNLVVSRVTEDSARLSWTAPDAAFDSFYISYPEWPGSGEAIVLTVPGSERSYDLTGLKPGTEYAVFIWCVKGGWLSDPLSAIFTT")
24900
>>> recorded_value("P283GR7P1367_B4 (designed binder, FN3 domain) LPAPKNLVVSRVTEDSARLSWTAPDAAFDSFSILYYELPPSGEAIVLTVPGSERSYDLTGLKPGTEYTVSIFGVKGGDNSFPLSAIFTT")
8300

1 = P283HR7P1368_F10 (designed binder, FN3 domain) LPAPKNLVVSRVTEDSARLSWTAPDAAFDSFYIPYRESEFRGEAIALPVPGSERSYDLTGLKPGTKYRVIIIGVKGGEFSQPLGAIFTT
2 = P283BR9P1363_G2 (designed binder, FN3 domain) LPAPKNLVVSRVTEDSARLSWPKNQTNRHFDSFLIQYQESEKVGEAIVLTVPGSERSYDLTGLKPGTEYTVSIYGVDVKWEGNRPVASNPLSAIFTT
## Input Pick one, 1 or 2 : lowest reported Human T-cell Binding 2 uM (MFI). Indicate which entry you chose by stating its label.
## Output 2
(2: 9640 MFI, 1: 18800 MFI)

A = P283HR7P1368_C3 (designed binder, FN3 domain) LPAPKNLVVSRVTEDSARLSWTAPDAAFDSFGIGYAEPAVTGEAISLSVPGSKRSYDLTGLKPGTEYWVVIIGVKGGINSYPLGASFTT
B = P283DR9P1364_E7 (designed binder, FN3 domain) LPAPKNLVVSRVTEDSARLSWTAPDAAFDSFNIAYPEWPVRGEAIVLTVPGSERSYDLTGLKPGTEYWVIIYGVKGGDRSNPLSAIFTT
## Input Please indicate which entry, A or B , has the lower recorded Human T-cell Binding 2 uM (MFI) value. Select an item and report its label.
## Output B
(B: 5390 MFI, A: 12700 MFI)
